// provenance: ChEMBL document CHEMBL1155224

Assayed system: Penicillin-binding protein 2x (Streptococcus pneumoniae serotype 4 (strain ATCC BAA-334 / TIGR4))
Sequence (P14677 whole entry, looked up): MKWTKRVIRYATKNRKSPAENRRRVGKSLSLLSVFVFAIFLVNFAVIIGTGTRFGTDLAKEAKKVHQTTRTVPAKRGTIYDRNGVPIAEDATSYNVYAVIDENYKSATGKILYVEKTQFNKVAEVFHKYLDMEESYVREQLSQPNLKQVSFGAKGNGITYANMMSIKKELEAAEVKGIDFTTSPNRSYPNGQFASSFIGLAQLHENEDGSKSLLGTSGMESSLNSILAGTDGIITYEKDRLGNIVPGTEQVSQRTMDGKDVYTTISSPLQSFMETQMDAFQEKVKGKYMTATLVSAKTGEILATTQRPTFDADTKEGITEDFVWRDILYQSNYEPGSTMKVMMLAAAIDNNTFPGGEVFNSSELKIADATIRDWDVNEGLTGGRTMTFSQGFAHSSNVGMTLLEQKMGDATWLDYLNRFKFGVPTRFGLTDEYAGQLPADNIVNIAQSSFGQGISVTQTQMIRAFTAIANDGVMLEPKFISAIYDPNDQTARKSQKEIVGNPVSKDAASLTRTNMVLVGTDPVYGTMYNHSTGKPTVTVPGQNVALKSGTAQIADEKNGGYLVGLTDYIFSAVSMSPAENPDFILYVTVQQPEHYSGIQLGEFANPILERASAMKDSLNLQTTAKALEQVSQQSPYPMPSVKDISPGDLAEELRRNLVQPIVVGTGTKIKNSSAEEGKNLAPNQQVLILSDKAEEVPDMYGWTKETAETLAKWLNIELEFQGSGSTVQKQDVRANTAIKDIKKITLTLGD
Run description: Inhibition of penicillin-resistant Streptococcus pneumoniae 5204 PBP2X preincubated for 4 hrs before addition of substrate (R)-[2-(benzoylamino)propionylsulfanyl]acetic acid
# Lookup of reported IC50 keyed by entry
Your answer is read as µM, so omit the unit and give the number.

{"Smiles code": "O=C(Nc1cccc(C(F)(F)F)c1)Nc1c(Oc2ccc(Cl)c(Cl)c2)ccc(Cl)c1S(=O)(=O)O", "Meas value": 72}

Problem: Give its IC50 value. Item: Cc1ccc(Nc2nnc(CSc3ccc(Cl)cc3)s2)c(S(=O)(=O)O)c1
Result: 219

Problem: Give its IC50 value. Item: Cc1cc(Cl)ccc1NC(=O)Nc1c(Oc2ccc(Cl)cc2)ccc(Cl)c1S(=O)(=O)O
Result: 71
